Entry source: ChEMBL document CHEMBL6071205

Target: von Hippel-Lindau disease tumor suppressor/GTPase KRas (Homo sapiens, UniProt P01116+P40337, G12D)
Sequence (P01116 whole entry G12D, stated change not applied): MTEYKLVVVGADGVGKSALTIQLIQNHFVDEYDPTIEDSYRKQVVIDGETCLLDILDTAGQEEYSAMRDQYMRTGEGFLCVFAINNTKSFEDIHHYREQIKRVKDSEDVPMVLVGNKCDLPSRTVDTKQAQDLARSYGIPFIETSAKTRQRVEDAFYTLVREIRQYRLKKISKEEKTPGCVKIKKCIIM
Sequence (P40337 whole entry, stated change not applied): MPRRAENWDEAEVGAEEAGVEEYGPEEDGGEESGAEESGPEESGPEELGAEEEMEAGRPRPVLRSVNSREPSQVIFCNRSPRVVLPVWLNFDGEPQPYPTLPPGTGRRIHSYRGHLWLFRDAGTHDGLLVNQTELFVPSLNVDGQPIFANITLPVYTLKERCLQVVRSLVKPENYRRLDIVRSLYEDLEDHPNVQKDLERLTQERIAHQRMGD
Assay: PROTAC activity at VHL/KRAS G12D mutant in human ASPC1 cells assessed as induction of protein degradation incubated for 24 hrs by HiBiT based Nano-Glo luminescence assay
Format: cell-based
readout: DC50

Request: Give the measured DC50 of C#Cc1c(F)ccc2cccc(-c3ncc4c(N5CC6CCC(C5)N6)nc(OC[C@@]56CCCN5[C@H](COC(=O)N5CCC(OCCCc7ccc8c(c7)n(C)c(=O)n8C7CCC(=O)NC7=O)CC5)CC6)nc4c3F)c12 (stereo not given in full) .
Response: ≤ 100 nM

Request: And then C#Cc1c(F)ccc2cc(O)cc(-c3ncc4c(N5CC6CCC(C5)N6)nc(OC[C@@]56CCCN5[C@H](COC(=O)N5CCC(OCc7ccc8c(c7)n(C)c(=O)n8C7CCC(=O)NC7=O)CC5)CC6)nc4c3F)c12 (stereo not given in full) , what is it?
Response: ≥ 100 nM

Request: And then C#Cc1c(F)ccc2cccc(-c3ncc4c(N5CC6CCC(C5)N6)nc(OC[C@@]56CCCN5[C@H](COC(=O)N5CCC(CN7CCC(c8ccc9c(c8)n(C)c(=O)n9C8CCC(=O)NC8=O)CC7)CC5)CC6)nc4c3F)c12 (stereo not given in full) , what is it?
Response: ≤ 100 nM

Request: And then C#Cc1c(F)ccc2cccc(-c3ncc4c(N5CC6CCC(C5)N6)nc(OC[C@@]56CCCN5[C@H](COC(=O)N5CCC(OC7CCN(Cc8ccc9c(c8)n(C)c(=O)n9C8CCC(=O)NC8=O)CC7)CC5)CC6)nc4c3F)c12 (stereo not given in full) , what is it?
Response: ≤ 100 nM

Request: And then C#Cc1c(F)ccc2cccc(-c3ncc4c(N5CC6CCC(C5)N6)nc(OC[C@@]56CCCN5[C@H](COC(=O)N5CC(CN7CCN(c8ccc9c(c8)n(C)c(=O)n9C8CCC(=O)NC8=O)CC7)C5)CC6)nc4c3F)c12 (stereo not given in full) , what is it?
Response: ≤ 100 nM
